experiment: small-molecule binders of probe aNOTCH2, primary screen, biochemical, small-molecule microarray, 635/667 nm fluorescence (AID 1121); conditions: higher = more signal;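 also: score merges feature fluorescence read at 667 nm with its signal to noise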
measurement_type: composite z-score
Lab note: write the figure by itself, no unit.

Looking up "CCCCO[C@H]1C[C@H]2C(Br)=C[C@@]1(CO)C(=O)[C@]21CO1" , I found its composite z-score recorded as -0.201

Looking up "O=C1c2ccccc2[C@](Cc2ccccc2I)(C(=O)O)[C@H](c2ccc(CO)cc2)N1C1CCCCC1" , I found its composite z-score recorded as -0.0708

Looking up "COC(=O)Cn1c(C(=O)N2CCCC2)cc2c1C[C@H]1CN(C(=O)c3ccccc3)[C@@](Cc3ccccc3)(C(=O)OC)[C@@H]21" , I found its composite z-score recorded as 0.0292

Looking up "NC(=O)[C@H]1[C@@H]2C(=O)O[C@@H](c3ccccc3)[C@@H](c3ccccc3)N2[C@@H](c2ccc(O)cc2)[C@]12C(=O)Nc1ccc(C#CCCO)cc12" , I found its composite z-score recorded as -0.0645

Looking up CC(C)C[C@@H]1NC(=O)[C@H](CC(C)C)NC(=O)[C@@]23C(=O)N[C@@H](Cc4ccccc4)C2[C@H](C)[C@@]2(C)O[C@H]2C3/C=C/CC/C=C/CNC1=O (stereo not given in full) , I found its composite z-score recorded as -0.118

Looking up "CC(C)CNC(=O)[C@@]1(C)c2ccccc2C(=O)N(Cc2ccc(OC(F)(F)F)cc2)[C@H]1c1ccc(CO)cc1" , I found its composite z-score recorded as -0.0094

Looking up "CO[C@@H]1COC(=O)[C@H](C)NC(=O)CC=C[C@@H](C)[C@H](NS(=O)(=O)c2ccc(C)cc2)COC(=O)CC=C[C@@H]1C" , I found its composite z-score recorded as -0.0554

Looking up "CN(C)CCCC[C@@H]1NC(=O)[C@@H]2C[C@H](C(=O)NCCCCCNC(=O)CS)[C@H](c3ccc(O)cc3)N2C1=O" , I found its composite z-score recorded as -0.0976

Looking up "COC(=O)[C@@]1(Cc2ccccc2N=[N+]=[N-])N=C(c2ccc(OCCCO)cc2)O[C@H]1c1ccccc1CN=[N+]=[N-]" , I found its composite z-score recorded as 0.0341

Looking up "CO[C@H]1COC(=O)[C@@H](Cc2ccccc2)NC(=O)[C@@H](C)COC(=O)CC=C[C@@H]1C" , I found its composite z-score recorded as -0.14

Looking up C#CCNC(/C=C/c1ccccc1)CO (stereo not given) , I found its composite z-score recorded as -0.115

Looking up "[N-]=[N+]=NCc1ccccc1C[C@]1(C(=O)N2CCCCC2)N=C(c2ccc(OCCCO)cc2)O[C@H]1c1ccccc1CN=[N+]=[N-]" , I found its composite z-score recorded as -0.0817

Looking up CN1C2C=C(c3ccc(CO)cc3)C(C3C(=O)N(C(N)=O)C(=O)C32)C1c1cccs1 (stereo not given) , I found its composite z-score recorded as -0.162

Looking up "CSCC[C@@H]1NC(=O)CC=C[C@@H](C)COC(=O)[C@H](CCSC)NC(=O)CC=C[C@@H](C)COC1=O" , I found its composite z-score recorded as -0.135

Looking up "CCN1C(C)=C(C(=O)OC)[C@@H](c2ccccc2)N2C(=O)[C@](O)(C(=O)OC)[C@@H](c3ccccc3)C(C(C)=O)=C12" , I found its composite z-score recorded as -0.0483
